# target or test system: Muscarinic acetylcholine receptor M1 (Rattus norvegicus)
# experimental protocol: rat M1 positive allosteric modulators, SAR follow-up, selectivity assay for M5 allosteric modulator project, cell-based (AID 2206)
# experimental context: CHO-K1 rat M1, Fluo-4 calcium, ACh EC20 potentiation
Activity calls are given as the source filed them.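 The calls were made as follows: active = average EC50 below 10 µM; inactive = average EC50 of 10 µM or more.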
API: response.call in active, inactive

# query smiles, target or test system, class label
data = [
    ("COc1ccc(CN2C(=O)C(=O)c3cccc(Cl)c32)cc1", "Muscarinic acetylcholine receptor M1 (Rattus norvegicus)", "active"),
]

Please let me know the test result on file for `O=C1C(=O)N(Cc2ccccc2Cl)c2ccc(OC(F)(F)F)cc21` .
inactive

Please let me know the test result on file for `COc1ccc(CN2C(=O)C(=O)c3cc(OC(F)(F)F)ccc32)cc1` .
inactive

Please let me know the test result on file for `O=C1C(=O)N(Cc2ccccc2C(F)(F)F)c2ccc(F)cc21` .
active

Please let me know the test result on file for `O=C1C(=O)N(Cc2ccc(C(F)(F)F)cc2)c2c(F)cccc21` .
active

Please let me know the test result on file for `O=C1C(=O)N(Cc2ccc(C(F)(F)F)cc2)c2ccc(Cl)cc21` .
active
